Data credit: ChEMBL document CHEMBL5143728

- system-tested: Toll-like receptor 1/2 (Homo sapiens, UniProt O60603+Q15399)
- Sequence (O60603 whole entry): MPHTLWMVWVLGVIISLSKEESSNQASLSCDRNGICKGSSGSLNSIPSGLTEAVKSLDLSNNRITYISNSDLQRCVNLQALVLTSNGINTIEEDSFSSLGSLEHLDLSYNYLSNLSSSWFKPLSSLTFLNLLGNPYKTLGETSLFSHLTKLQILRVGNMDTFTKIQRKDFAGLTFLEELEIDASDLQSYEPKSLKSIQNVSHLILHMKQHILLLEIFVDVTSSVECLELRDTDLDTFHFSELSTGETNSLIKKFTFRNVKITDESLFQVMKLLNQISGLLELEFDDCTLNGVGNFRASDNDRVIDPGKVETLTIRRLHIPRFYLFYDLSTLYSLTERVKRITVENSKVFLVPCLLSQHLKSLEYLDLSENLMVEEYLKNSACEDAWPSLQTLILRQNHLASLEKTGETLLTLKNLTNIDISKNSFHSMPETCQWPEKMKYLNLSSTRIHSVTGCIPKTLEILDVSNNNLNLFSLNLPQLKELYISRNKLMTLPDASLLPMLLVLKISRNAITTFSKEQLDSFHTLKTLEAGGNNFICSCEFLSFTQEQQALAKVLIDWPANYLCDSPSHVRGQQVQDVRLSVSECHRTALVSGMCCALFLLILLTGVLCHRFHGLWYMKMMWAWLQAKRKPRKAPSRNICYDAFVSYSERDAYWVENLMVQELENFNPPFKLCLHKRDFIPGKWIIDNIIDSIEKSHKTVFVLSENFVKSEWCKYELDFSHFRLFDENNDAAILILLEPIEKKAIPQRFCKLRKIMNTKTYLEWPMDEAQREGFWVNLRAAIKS
- Sequence (Q15399 whole entry): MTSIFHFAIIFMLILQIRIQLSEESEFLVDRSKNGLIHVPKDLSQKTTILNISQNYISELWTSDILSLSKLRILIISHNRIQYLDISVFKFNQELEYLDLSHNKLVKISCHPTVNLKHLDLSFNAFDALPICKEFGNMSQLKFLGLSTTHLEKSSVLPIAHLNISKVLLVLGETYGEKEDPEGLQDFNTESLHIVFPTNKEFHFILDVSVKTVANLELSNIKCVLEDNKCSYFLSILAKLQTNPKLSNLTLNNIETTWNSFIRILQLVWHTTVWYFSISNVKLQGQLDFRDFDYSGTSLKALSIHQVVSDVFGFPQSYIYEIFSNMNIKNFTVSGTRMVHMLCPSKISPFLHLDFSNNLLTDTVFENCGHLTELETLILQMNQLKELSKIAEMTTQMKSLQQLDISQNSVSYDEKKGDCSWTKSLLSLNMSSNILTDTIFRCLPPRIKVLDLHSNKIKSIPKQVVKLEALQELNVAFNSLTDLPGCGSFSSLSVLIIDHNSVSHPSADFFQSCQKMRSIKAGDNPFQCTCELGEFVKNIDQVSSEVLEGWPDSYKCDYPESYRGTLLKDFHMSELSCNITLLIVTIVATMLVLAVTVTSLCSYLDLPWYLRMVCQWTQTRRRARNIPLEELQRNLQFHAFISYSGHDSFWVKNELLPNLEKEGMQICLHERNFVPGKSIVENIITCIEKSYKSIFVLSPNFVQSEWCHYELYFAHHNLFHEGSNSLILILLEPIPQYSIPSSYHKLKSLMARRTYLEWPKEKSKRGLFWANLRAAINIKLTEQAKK
- assay-details: Agonist activity at TLR1/TLR2 in human THP-1 derived macrophages assessed as stimulation of TNF alpha release measured for 4 hrs by ELISA based assay
quantity-measured: EC50 (nM)

(P) CCCCCCCCCCNC(=O)[C@@H]1CN(C(=O)c2ccc(C(=O)N3C[C@@H](C(=O)N[C@H]4C[C@@H]4c4ccccc4)[C@H](C(=O)N[C@H]4C[C@@H]4c4ccccc4)C3)cc2)C[C@H]1C(=O)N[C@H]1C[C@@H]1c1ccccc1
(Q) O=C(NCCCCCCCCCCO)[C@@H]1CN(C(=O)c2ccc(C(=O)N3C[C@@H](C(=O)N[C@H]4C[C@@H]4c4ccccc4)[C@H](C(=O)N[C@H]4C[C@@H]4c4ccccc4)C3)cc2)C[C@H]1C(=O)N[C@H]1C[C@@H]1c1ccccc1
Quick one: lower EC50, P or Q ? Lab note: record the label of whichever item you select.
P

---

- system-tested: Toll-like receptor 1/2 (Mus musculus) (UniProt Q9QUN7+Q9EPQ1)
- assay-details: Agonist activity at TLR1/TLR2 in wild type C57BL/6J mouse macrophages assessed as stimulation of TNF alpha release measured for 4 hrs by ELISA based assay relative to diprovocim-1
- Type: cell-based
- Design: concentration or dose not given beside the values
- condition-info: Macrophage, filed as agonist
quantity-measured: Activity (%)

Supply recorded Activity for `COC(=O)CCCCCCCCCCCNC(=O)[C@@H]1CN(C(=O)c2ccc(C(=O)N3C[C@@H](C(=O)N[C@H]4C[C@@H]4c4ccccc4)[C@H](C(=O)N[C@H]4C[C@@H]4c4ccccc4)C3)cc2)C[C@H]1C(=O)N[C@H]1C[C@@H]1c1ccccc1` here.
100

(a) CN(C)CC(=O)OCCCCCCCCCCCCNC(=O)[C@@H]1CN(C(=O)c2ccc(C(=O)N3C[C@@H](C(=O)N[C@H]4C[C@@H]4c4ccccc4)[C@H](C(=O)N[C@H]4C[C@@H]4c4ccccc4)C3)cc2)C[C@H]1C(=O)N[C@H]1C[C@@H]1c1ccccc1
(b) Nc1ccc(C(=O)OCCCCCCCCCCCCNC(=O)[C@@H]2CN(C(=O)c3ccc(C(=O)N4C[C@@H](C(=O)N[C@H]5C[C@@H]5c5ccccc5)[C@H](C(=O)N[C@H]5C[C@@H]5c5ccccc5)C4)cc3)C[C@H]2C(=O)N[C@H]2C[C@@H]2c2ccccc2)cc1
Quick one: lower Activity, a or b ? Lab note: record the label of whichever item you select.
a

---

- system-tested: Toll-like receptor 1/2 (Homo sapiens, UniProt O60603+Q15399)
- assay-details: Agonist activity at TLR1/TLR2 in human THP-1 derived macrophages assessed as stimulation of TNF alpha release measured for 4 hrs by ELISA based assay relative to diprovocim-1
- Type: cell-based
- Design: concentration or dose not given beside the values
- condition-info: filed as agonist
quantity-measured: Activity (%)

Supply recorded Activity for `CC(C)(C)OC(=O)c1ccc(C(=O)NCC(=O)OCCCCCCCCCCCCNC(=O)[C@@H]2CN(C(=O)c3ccc(C(=O)N4C[C@@H](C(=O)N[C@H]5C[C@@H]5c5ccccc5)[C@H](C(=O)N[C@H]5C[C@@H]5c5ccccc5)C4)cc3)C[C@H]2C(=O)N[C@H]2C[C@@H]2c2ccccc2)cc1` here.
100

Supply recorded Activity for `Cc1ccc(S(=O)(=O)n2cnc(C[C@H](NC(=O)OC(C)(C)C)C(=O)OCCCCCCCCCCCCNC(=O)[C@@H]3CN(C(=O)c4ccc(C(=O)N5C[C@@H](C(=O)N[C@H]6C[C@@H]6c6ccccc6)[C@H](C(=O)N[C@H]6C[C@@H]6c6ccccc6)C5)cc4)C[C@H]3C(=O)N[C@H]3C[C@@H]3c3ccccc3)c2)cc1` here.
90

Supply recorded Activity for `CC(C)(C)OC(=O)NNC(=O)OCCCCCCCCCCCCNC(=O)[C@@H]1CN(C(=O)c2ccc(C(=O)N3C[C@@H](C(=O)N[C@H]4C[C@@H]4c4ccccc4)[C@H](C(=O)N[C@H]4C[C@@H]4c4ccccc4)C3)cc2)C[C@H]1C(=O)N[C@H]1C[C@@H]1c1ccccc1` here.
100
